Task for the reader: assign each of the following compounds its reported pIC50.
Target: ADAMTS4 (Homo sapiens)
Sequence (O75173 213-685 limits assumed): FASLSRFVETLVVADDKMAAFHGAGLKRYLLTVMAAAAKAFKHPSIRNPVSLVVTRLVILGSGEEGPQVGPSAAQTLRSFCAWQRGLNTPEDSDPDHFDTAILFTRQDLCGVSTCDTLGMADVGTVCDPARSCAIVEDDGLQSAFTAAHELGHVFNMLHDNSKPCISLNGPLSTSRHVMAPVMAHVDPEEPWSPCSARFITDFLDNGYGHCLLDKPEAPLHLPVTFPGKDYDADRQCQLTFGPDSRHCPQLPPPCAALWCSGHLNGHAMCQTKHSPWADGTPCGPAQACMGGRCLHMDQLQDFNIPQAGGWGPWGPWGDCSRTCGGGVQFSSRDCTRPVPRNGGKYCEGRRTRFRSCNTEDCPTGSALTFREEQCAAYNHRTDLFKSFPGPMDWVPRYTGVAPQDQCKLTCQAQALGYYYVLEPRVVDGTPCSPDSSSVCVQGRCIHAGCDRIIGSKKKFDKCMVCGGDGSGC
Give bare numbers, as −log10 of the molar value.

Compound: CC(C)C1(CNC(=O)c2cnn(-c3ccc(F)c(F)c3)n2)NC(=O)NC1=O (racemic) [Example 122]
Assay target: ADAMTS4 (Homo sapiens)
pIC50: 5.60

Compound: CCCC1(CNC(=O)c2cnn(-c3ccc(F)cc3)n2)NC(=O)NC1=O (stereo not drawn) [Example 73]
Assay target: ADAMTS4 (Homo sapiens)
pIC50: 5.29

Compound: O=C1NC(=O)C(CNC(=O)c2cnn(-c3ccc(F)cc3)n2)(C2CCC2)N1 (stereo not drawn) [Example 77]
Assay target: ADAMTS4 (Homo sapiens)
pIC50: 5.36

Compound: O=C1NC(=O)C(CNC(=O)c2cnn(-c3ccc(F)cc3)n2)(c2ncsc2C(F)(F)F)N1 (stereo not drawn) [Example 136]
Assay target: ADAMTS4 (Homo sapiens)
pIC50: 5.46

List reported pIC50 for each of these compounds:
1. Cn1ccnc1C1(CNC(=O)c2cnn(-c3ccccc3)n2)NC(=O)NC1=O (racemic) [Example 140]
2. CCC1(CNC(=O)c2cnn(-c3ccc(F)cc3)n2)NC(=O)NC1=O (racemic) [Example 162]
3. O=C1NC(=O)C(CNC(=O)c2cnn(-c3ccc(F)cc3)n2)(c2ccccn2)N1 (single isomer, unassigned) [Example 97]
4. O=C1NC(=O)C(CNC(=O)c2cnn(-c3ccc(F)cc3)n2)(C2CCC2)N1 (racemic) [Example 69]
5. O=C1NC(=O)[C@](CNC(=O)c2cnn(-c3ccc(F)c(Cl)c3)n2)(C2CC2)N1 [Example 29]
6. O=C1NC(=O)C(CNC(=O)c2cnn(-c3ccc(Cl)cc3)n2)(C2CCC2)N1 (single isomer, unassigned; ent-2) [Example 95]
7. O=C1NC(=O)C(CNC(=O)c2cnn(-c3ccccc3)n2)(C2CCOCC2)N1 (racemic) [Example 61]

[6.44, 4.89, 5.72, 4.46, 6.60, 6.01, 5.00]

For each entry beneath this line, provide reported pIC50.
1. Cc1nc(C2(CNC(=O)c3cnn(-c4ccc(F)cc4)n3)NC(=O)NC2=O)c(C)s1 (racemic) [Example 158]
2. O=C1NC(=O)[C@](CNC(=O)c2cnn(-c3ccccc3)n2)(C2CC2)N1 [Example 45]
3. O=C1NC(=O)[C@](CNC(=O)c2coc(-c3ccc(F)cc3)n2)(C2CC2)N1 [Example 41]

5.55
5.84
5.77

Could you report pIC50 for every entry in the following list?
1. CC1(CNC(=O)c2cnn(-c3ccc(F)cc3)n2)NC(=O)NC1=O (single isomer, unassigned; ent-2) [Example 153]
2. CC(C)C1(CNC(=O)c2cnn(-c3ccc(F)cc3F)n2)NC(=O)NC1=O (racemic) [Example 87]

[5.05, 4.70]

I have 6 compounds here; please give me pIC50 for each one.
1. CC(C)C1(CNC(=O)c2cnn(-c3ccccc3)n2)NC(=O)NC1=O (stereo not drawn) [Example 70]
2. O=C1NC(=O)[C@](CNC(=O)c2cnn(-c3ccccc3Cl)n2)(C2CC2)N1 [Example 11]
3. O=C1NC(=O)[C@](CNC(=O)c2cnn(-c3ncccc3F)n2)(C2CC2)N1 [Example 101]
4. O=C1NC(=O)C(CNC(=O)c2cnn(-c3cc(F)c(F)c(F)c3)n2)(C2CCC2)N1 (stereo not drawn) [Example 90]
5. O=C1NC(=O)C(CNC(=O)c2cnn(-c3ccc(F)c(F)c3)n2)(C2CCC2)N1 (stereo not drawn) [Example 94]
6. O=C1NC(=O)C(CNC(=O)c2cnn(-c3ccccc3)n2)(C2CCC2)N1 (stereo not drawn) [Example 79]

1. 5.00
2. 5.00
3. 4.85
4. 5.51
5. 6.05
6. 4.96
